Reported IC50 values for the following compounds.
- Tested on: RSV
- assay summary: XTT assay, RSV-infected Vero cells
- Assay type: cell-based, Respiratory Syncytial Virus (RSV)
- experimental conditions: human respiratory syncytial virus, Vero, 144 h, read-out: XTT IC50 (uM), Table 2, Examples 83 to 124; Vero cells infected with RSV, m.o.i.≈0.2, 6 days at 33° C.
Report the value in µM with no unit label.

// solved cases for IC50 follow
- compound: "O=C(Nc1ccc([N+](=O)[O-])cc1)NC1N=C(c2ccccc2)c2ccccc2NC1=O (stereo not shown)"
  numeric result: 0.4
- compound: "COc1cccc(C(=O)NC2N=C(c3ccccc3)c3ccccc3NC2=O)c1[N+](=O)[O-] (stereo not shown)"
  numeric result: 0.5
- compound: "COc1ccccc1C(=O)NC1N=C(c2cccc(C(F)(F)F)c2)c2ccccc2NC1=O (stereo not shown)"
  numeric result: 5

Request: Would you mind telling me what IC50 value was observed for Cc1cc(C)cc(NC(=O)NC2N=C(c3ccccc3)c3ccccc3NC2=O)c1 (stereo not shown) ?
Response: 1.5

* * *

Reported values of TC50 (6d) for individual entries
- Tested on: Hep-2 cells
- assay summary: Toxicity studies (XTT), Hep-2 cells
- Type: cell-based
- Design: unit not given beside the values
- experimental conditions: Table 2, Examples 75 to 82 and 125 to 184, 6d, in µM
Output: the number by itself.

Past entries and their recorded results:
- molecule: "O=C(NC1N=C(c2ccccc2)c2ccccc2NC1=O)c1cc(F)c(F)cc1F (stereo not drawn) [Example 79a]"
  numeric result: 65
- molecule: "O=C(NC1N=C(c2ccccc2)c2ccccc2NC1=O)c1cccc2cc[nH]c12 (stereo not drawn) [Example 81a]"
  numeric result: 63
- molecule: "Cc1cc(C(=O)NC2N=C(c3ccccc3)c3ccccc3NC2=O)oc1C (stereo not drawn) [Example 152]"
  numeric result: 100
- molecule: "CS(=O)(=O)c1ccc(C(=O)NC2N=C(c3ccccc3)c3ccccc3NC2=O)cc1 (stereo not drawn) [Example 133]"
  numeric result: 77.2

Request: Data request, read-out TC50 (6d), for O=C(N[C@H]1N=C(c2ccccc2)c2ccccc2NC1=O)c1cccc2cc[nH]c12 [Example 81b]
Response: 35.6

Request: Can you share its TC50 (6d)? I mean this molecule: O=C(NC1N=C(c2ccccc2)c2ccccc2NC1=O)c1cccc2c1C(=O)c1ccccc1-2 (stereo not drawn) [Example 176]
Response: 99

Request: Need TC50 (6d) of O=C(NC1N=C(c2ccccc2)c2ccccc2NC1=O)c1ccccc1I (stereo not drawn) [Example 138] , thanks.
Response: 51

Request: Returns the measured TC50 (6d) for the input molecule. Input: O=C(N[C@H]1N=C(c2ccccc2)c2ccccc2NC1=O)c1cc2ccccc2o1 [Example 180]
Response: 37.1

* * *

- Test system: RSV
- assay summary: XTT assay, RSV-infected Vero cells
- Format: cell-based, Respiratory Syncytial Virus (RSV)
- experimental conditions: Table 2, Examples 83 to 124; Vero cells infected with RSV, m.o.i.≈0.2, 6 days at 33° C.; read-out: XTT IC50
reported property: IC50 (µM)
Numbers only; they are read as µM.

Request: Fill in the recorded IC50 for this compound, with RSV as test system: COc1ccc(C(=O)NC2N=C(c3cccc(C(F)(F)F)c3)c3ccccc3NC2=O)cc1 (stereo not shown) [Example 105]
Response: 9
